Each item that follows carries a reported interaction score.
# TARGET ENTITY: T1, APC6108-AA
# T1 chain: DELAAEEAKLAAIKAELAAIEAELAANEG
# EXPERIMENTAL PROTOCOL: two-hybrid library CCmax;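 further: natural log of median RNA to DNA barcode read ratio; higher means stronger binding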
# TEST CONTEXT: mean of both orientations

Example binders with recorded interaction score:
BINDER | interaction score
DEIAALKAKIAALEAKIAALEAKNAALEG [4H807-AA] | -1.43
DENAALEAELAAIEAKLAAIKAKLAAIKG [APC4011-AA] | 0.352
DKNAALKAKAAALKAELAANEAKAAALKG [APC5383-AA] | -1.32
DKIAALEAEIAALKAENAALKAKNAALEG [4H2143-AA] | -1.49
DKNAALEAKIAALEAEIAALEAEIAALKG [4H3330-AA] | 0.0413

Please fill in: interaction score reported for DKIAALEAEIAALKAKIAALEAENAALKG [4H2148-AA] = -1.13

The measured interaction score associated with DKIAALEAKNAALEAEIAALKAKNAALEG [4H2447-AA] reads -1.28
